# procedure-details: Volume of distribution at steady state in Beagle dog at 1 mg/kg, iv and 1 mg/kg, po
# Type: ADME, organism-based, Canis lupus familiaris
# condition-label: in vivo, read-out: Vdss
metric: Vd (L/kg)
// return numeric value only (unit: L/kg, not printed)

Input: Name the recorded Vd for `Cc1nc(N2CCN(C)CC2)c2nc(-c3ccccc3Cl)n([C@H](C)CO)c2n1` .
Output: 4

---

# test-target: Cannabinoid receptor 1 (Homo sapiens, UniProt P21554)
# Sequence (P21554 whole entry): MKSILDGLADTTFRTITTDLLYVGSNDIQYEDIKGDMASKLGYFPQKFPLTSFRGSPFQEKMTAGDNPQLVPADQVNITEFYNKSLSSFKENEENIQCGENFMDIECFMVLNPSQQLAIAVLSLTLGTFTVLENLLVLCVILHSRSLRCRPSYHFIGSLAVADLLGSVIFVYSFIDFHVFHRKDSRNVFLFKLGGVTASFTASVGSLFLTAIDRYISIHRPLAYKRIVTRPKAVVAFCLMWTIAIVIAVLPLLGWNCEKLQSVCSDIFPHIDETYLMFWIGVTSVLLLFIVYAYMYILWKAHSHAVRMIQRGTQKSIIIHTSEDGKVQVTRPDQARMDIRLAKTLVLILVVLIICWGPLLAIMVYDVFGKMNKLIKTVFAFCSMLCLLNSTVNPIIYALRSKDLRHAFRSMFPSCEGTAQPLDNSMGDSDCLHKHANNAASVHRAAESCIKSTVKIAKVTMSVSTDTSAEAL
# procedure-details: Agonist activity at human CB1 receptor expressed in Sf9 cells by [35S]-GTPgammaS binding assay
pEC50: −log10 of the molar value.
metric: pEC50

// solved cases for pEC50 follow
>  <compound-string>
Cc1nc(N2CCN(C)CC2)c2nc(-c3ccccc3Cl)n([C@H](C)CO)c2n1

>  <pEC50>
< 4.00

$$$$
>  <compound-string>
Cc1nc(N2CCN(C)CC2)c2nc(-c3ccccc3Cl)n(C(C)(C)CO)c2n1

>  <pEC50>
5.30

$$$$
>  <compound-string>
CCN1CCN(c2nc(C)nc3c2nc(-c2ccccc2Cl)n3CCCOC)CC1

>  <pEC50>
5.86

$$$$

Input: Fill in: pEC50 of `Cc1nc(N2CCN(C)CC2)c2nc(-c3ccccc3Cl)n(CC(C)(C)O)c2n1` is ___
Output: < 4.00

Input: Could you share which pEC50 value was measured for `CCN1CCN(c2nc(C)nc3c2nc(-c2ccccc2Cl)n3C(COC)COC)CC1` ?
Output: < 4.00

Input: Look up pEC50 for this compound: `Cc1nc(N2CCN(C)CC2)c2nc(-c3ccccc3Cl)n([C@@H](C)CO)c2n1`
Output: < 4.00

---

# procedure-details: Inhibition of GABA gated chloride channel in rat cortex by radioligand binding assay
metric: Ki (nM)
Write the number in nM without appending the unit.

Input: Which measured Ki value corresponds to Cc1nc(N2CCN(C)CC2)c2nc(-c3ccccc3Cl)n(C3CCOCC3)c2n1 [LY2828360] ?
Output: 2200

---

# procedure-details: Drug metabolism in human liver microsomes at 2 uM after 0.5 hr by LC/MS/MS analysis
# Type: ADME
# condition-label: read-out: Drug metabolism
Label FALSE if metabolised at 0.5 h, 2 µM falls below 20%; label TRUE in every other case.

>  <compound-string>
COC(=O)NCCn1c(-c2ccccc2Cl)nc2c(N3CCN(C)CC3)nc(C)nc21

>  <group-label>
FALSE

$$$$

Input: I'd appreciate it if you could say whether `Cc1nc(N2CCN(C)CC2)c2nc(-c3ccccc3Cl)n(CC(C)(C)O)c2n1` has metabolised at 0.5 h, 2 µM at least equal to 20%.
Output: TRUE

Input: Hi, just wondering whether `Cc1nc(N2CCN(C)CC2)c2nc(-c3ccccc3Cl)n(C(C)(C)CO)c2n1` shows metabolised at 0.5 h, 2 µM of 20% or higher.
Output: TRUE

Input: Is it the case that `CCN1CCN(c2nc(C)nc3c2nc(-c2ccccc2Cl)n3C(COC)COC)CC1` has metabolised at 0.5 h, 2 µM reaching or exceeding 20%?
Output: TRUE

Input: Item `Cc1nc(N2CCN(C)CC2)c2nc(-c3ccccc3Cl)n([C@@H](C)CO)c2n1` with metabolised at 0.5 h, 2 µM of 20% or above?
Output: FALSE

Input: Can `Cc1nc(N2CCN(C)CC2)c2nc(-c3ccccc3Cl)n([C@H](C)CO)c2n1` be said to have metabolised at 0.5 h, 2 µM at or above 20%?
Output: TRUE

Input: Does the reported metabolised at 0.5 h, 2 µM for `CCN1CCN(c2nc(C)nc3c2nc(-c2ccccc2Cl)n3CCCOC)CC1` fall at or above the 20% mark?
Output: TRUE

---

List of bioavailability values.
# procedure-details: Oral bioavailability in Beagle dog at 1 mg/kg
# Assay type: ADME, organism-based, Canis lupus familiaris
# condition-label: in vivo
Response body: numeric value in %, unit text excluded.

>  <compound-string>
Cc1nc(N2CCN(C)CC2)c2nc(-c3ccccc3Cl)n(C3CCOCC3)c2n1

>  <metric>
bioavailability

>  <unit-info>
%

>  <observed-result>
76

$$$$

Input: So what does the record say about bioavailability for `Cc1nc(N2CCN(C)CC2)c2nc(-c3ccccc3Cl)n([C@H](C)CO)c2n1` ?
Output: 23

---

# test-target: Cannabinoid receptor 2 (Homo sapiens, UniProt P34972)
# Sequence (P34972 whole entry): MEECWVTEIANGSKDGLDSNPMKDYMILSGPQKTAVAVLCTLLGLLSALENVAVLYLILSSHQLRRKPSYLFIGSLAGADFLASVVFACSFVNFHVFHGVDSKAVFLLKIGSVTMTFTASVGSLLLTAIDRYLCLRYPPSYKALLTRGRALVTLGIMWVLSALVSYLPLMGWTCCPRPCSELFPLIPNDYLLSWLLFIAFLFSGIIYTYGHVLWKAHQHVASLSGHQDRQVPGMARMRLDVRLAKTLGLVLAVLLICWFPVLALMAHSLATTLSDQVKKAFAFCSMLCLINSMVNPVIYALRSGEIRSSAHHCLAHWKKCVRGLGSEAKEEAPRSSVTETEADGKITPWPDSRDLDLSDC
# procedure-details: Agonist activity at human CB2 receptor expressed in CHO cells by [35S]-GTPgammaS binding assay relative to control
# Format: functional, cell-based
metric: Efficacy (%)
Give the number; % is assumed, so skip it.

>  <compound-string>
Cc1nc(N2CCN(C)CC2)c2nc(-c3ccccc3Cl)n(C(C)(C)CO)c2n1

>  <Efficacy / %>
72.6

$$$$
>  <compound-string>
CCN1CCN(c2nc(C)nc3c2nc(-c2ccccc2Cl)n3CCCOC)CC1

>  <Efficacy / %>
96.5

$$$$
>  <compound-string>
Cc1nc(N2CCN(C)CC2)c2nc(-c3ccccc3Cl)n(CC(C)(C)O)c2n1

>  <Efficacy / %>
85.4

$$$$

Input: Name the recorded Efficacy for `CCN1CCN(c2nc(C)nc3c2nc(-c2ccccc2Cl)n3C(COC)COC)CC1` .
Output: 69.3

Input: Consider the compound shown here: `Cc1nc(N2CCN(C)CC2)c2nc(-c3ccccc3Cl)n([C@@H](C)CO)c2n1` What is its recorded Efficacy?
Output: 96.5

Input: Name the recorded Efficacy for `Cc1nc(N2CCN(C)CC2)c2nc(-c3ccccc3Cl)n([C@H](C)CO)c2n1` .
Output: 81.8

---

# procedure-details: Drug metabolism in dog liver microsomes at 2 uM after 0.5 hr by LC/MS/MS analysis
# Type: ADME, Canis lupus familiaris
# condition-label: read-out: Drug metabolism
metric: metabolised at 0.5 h, 2 µM (%)
Express the result in % but write the number alone.

The following molecules have reported results that may help.
>  <compound-string>
CCN1CCN(c2nc(C)nc3c2nc(-c2ccccc2Cl)n3C(COC)COC)CC1

>  <metric>
metabolised at 0.5 h, 2 µM

>  <observed-result>
66

$$$$
>  <compound-string>
Cc1nc(N2CCN(C)CC2)c2nc(-c3ccccc3Cl)n([C@H](C)CO)c2n1

>  <metric>
metabolised at 0.5 h, 2 µM

>  <observed-result>
42

$$$$

Turning now to a further record.
Input: Need metabolised at 0.5 h, 2 µM of `CCN1CCN(c2nc(C)nc3c2nc(-c2ccccc2Cl)n3CCCOC)CC1` , thanks.
Output: 99

---

# procedure-details: Aqueous solubility of the compound at pH 6.5
# Type: physicochemical
metric: solubility (µg/mL)
Answer format: numeric, µg/mL implied, no suffix.

Input: For `Cc1nc(N2CCN(C)CC2)c2nc(-c3ccccc3Cl)n([C@H](C)CO)c2n1` , what is its reported solubility?
Output: 1800

Input: # get_value(readout='solubility', item= `Cc1nc(N2CCN(C)CC2)c2nc(-c3ccccc3Cl)n(C3CCOCC3)c2n1` )
Output: 100

---

# procedure-details: Half life in Sprague-Dawley rat at 1 mg/kg, po
# Assay type: ADME, organism-based
# Set-up: dose 1 mg/kg, route oral
# condition-label: in vivo
metric: half-life

Input: Fill blank: measured half-life of the compound `Cc1nc(N2CCN(C)CC2)c2nc(-c3ccccc3Cl)n([C@H](C)CO)c2n1` is ____.
Output: 2.3 h

---

# test-target: Cannabinoid receptor 2 (Homo sapiens)
# procedure-details: Agonist activity at human CB2 receptor expressed in CHO cells by [35S]-GTPgammaS binding assay
metric: EC50 (nM)
Report as a plain number; the unit nM is understood.

Please review the following examples before continuing.
>  <compound-string>
CCN1CCN(c2nc(C)nc3c2nc(-c2ccccc2Cl)n3CCCOC)CC1

>  <EC50 / nM>
4.3

$$$$
>  <compound-string>
Cc1nc(N2CCN(C)CC2)c2nc(-c3ccccc3Cl)n(C(C)(C)CO)c2n1

>  <EC50 / nM>
12.5

$$$$
>  <compound-string>
Cc1nc(N2CCN(C)CC2)c2nc(-c3ccccc3Cl)n([C@H](C)CO)c2n1

>  <EC50 / nM>
22.4

$$$$
>  <compound-string>
Cc1nc(N2CCN(C)CC2)c2nc(-c3ccccc3Cl)n(CC(C)(C)O)c2n1

>  <EC50 / nM>
5.9

$$$$

Input: Field request: EC50 | item: `Cc1nc(N2CCN(C)CC2)c2nc(-c3ccccc3Cl)n([C@@H](C)CO)c2n1`
Output: 12.5

Input: Given the compound `CCN1CCN(c2nc(C)nc3c2nc(-c2ccccc2Cl)n3C(COC)COC)CC1` , what is its reported EC50?
Output: 5

---

As shown below, each of these compounds has a reported logP value.
# procedure-details: Lipophilicity, log P of the compound
# Type: physicochemical
# condition-label: octanol/water

>  <compound-string>
Cc1nc(N2CCN(C)CC2)c2nc(-c3ccccc3Cl)n([C@H](C)CO)c2n1

>  <logP>
3.1

$$$$

Input: If you can, please state the reported logP value of `Cc1nc(N2CCN(C)CC2)c2nc(-c3ccccc3Cl)n(C3CCOCC3)c2n1` .
Output: 3.2
